- System: Bacillus subtilis
- assay: cleaved RNA product abundance (RNA/gDNA barcode ratio) relative to median wild-type variant (ratio to wild type); higher = more accumulation of the downstream cleavage product
- study-conditions: experiment (reporter, strain, medium): exp 8a: truncated aprE reporter, strain BJT201 with 2% xylose (RNase J1 expressed); cleavage site: glnRA (positions -5 to +31 mutated)
measure: cleaved RNA product abundance

1) CGACATGTCCCGCTTCTTTCATTAATCCGTTAGCGACTGTTTTGCTATATACATTGACCTTTTAAGAGGAGGAAT 0.274
2) CGACATGTCCCGCTTCTTTCATTACTCCGTTTGCAACTGTTTTGCTATATACATTTACCTTTTAAGAGGAGGAAT 0.667
3) CGACATGTCCCGCTTCTTTCATTAATCCGTTAGCAACTGTTTTGCTATATACTTTTACCTTTTAAGAGGAGGAAT 0.641
4) CGACATGTCCCGCTTCTTTCATTAATCCATTAGCAACTGTTTTGCTATATACATTAACCTTTTAAGAGGAGGAAT 1.3
5) CGACATGTCCCGCTTCTTTCATTAATCCGTTAGCAACTGTTTTTCTATATATATTTACCTTTTAAGAGGAGGAAT 0.668
6) CGACATGTCCCGCTTCTTTCATTAATCCATTAGCAACTGTTTTGCTATATACATTTACCTTTTAAGAGGAGGAAT 0.857
7) CGACATGTCCCGCTTCTTTCATTAATCCATTAGCAACTGTATTGCTATATACATTTACCTTTTAAGAGGAGGAAT 0.279
8) CGACATGTCCCGCTTCTTTCATTAATCCGTTAACTACTGTTTTGCTATATACATTTACCTTTTAAGAGGAGGAAT 0.265
9) CGACATGTCCCGCTTCTTTCATTAATCTGTTAGCAACCGTTTTGCTATATACATTTACCTTTTAAGAGGAGGAAT 0.436
10) CGACATGTCCCGCTTCTTTCATTACTCCGTTAGCAAATGTTTTGCTATATACATTTACCTTTTAAGAGGAGGAAT 1.14
11) CGACATGTCCCGCTTCTTTCATTATTACGTTAGCAACTGTTTTGCTATATACATTTACCTTTTAAGAGGAGGAAT 1.27
12) CGACATGTCCCGCTTCTTTCATTAATCTGTTAGCAATTGTTTTGCTATATACATTTACCTTTTAAGAGGAGGAAT 1.59
13) CGACATGTCCCGCTTCTTTCATTAGTCCGTTAGTAACTGTTTTGCTATATACATTTACCTTTTAAGAGGAGGAAT 0.335
14) CGACATGTCCCGCTTCTTTCATTAATCTGTTAGCAACTGTTTTGCTATATACATTGACCTTTTAAGAGGAGGAAT 0.991
15) CGACATGTCCCGCTTCTTTCATTAACCCGTAAGCAACTGTTTTGCTATATACATTTACCTTTTAAGAGGAGGAAT 0.312
16) CGACATGTCCCGCTTCTTTCATTAATCCGTTTGAAACTGTTTTGCTATATACATTTACCTTTTAAGAGGAGGAAT 0.388
17) CGACATGTCCCGCTTCTTTCATTAATCCGTTAGCAACTGTTTTACTATATACATTTACGTTTTAAGAGGAGGAAT 0.77
18) CGACATGTCCCGCTTCTTTCATTAATCCGTTACCAACTGTTTTGCTATATACATTTACTTTTTAAGAGGAGGAAT 0.208
19) CGACATGTCCCGCTTCTTTCATTAATCCGTTAGCAACTGTTTTGCTATTTACATTTACCTTTTAAGAGGAGGAAT 0.16
20) CGACATGTCCCGCTTCTTTCATTAATCCGTTAGCACCTGTTTTGCTATATACATTTACTTTTTAAGAGGAGGAAT 0.499
21) CGACATGTCCCGCTTCTTTCATTAATGCGTTAGCAACTGTTTTTCTATATACATTTACCTTTTAAGAGGAGGAAT 0.479
22) CGACATGTCCCGCTTCTTTCATTAATCCTTTCGCAACTGTTTTGCTATATACATTTACCTTTTAAGAGGAGGAAT 0.299
23) CGACATGTCCCGCTTCTTTCATTAATCCCTTAACAACTGTATTGCTATATACATTTACCTTTTAAGAGGAGGAAT 0.142
24) CGACATGTCCCGCTTCTTTCATTAATCCGTTAGCAACTGTTTGGCTATATACATTTACATTTTAAGAGGAGGAAT 0.339
25) CGACATGTCCCGCTTCTTTCATTAATCCGTTAGCAACTGTTTAGCTATATACATATACCTTTTAAGAGGAGGAAT 0.539
26) CGACATGTCCCGCTTCTTTCATTAATCCGTTAGCAACTGTTTTGCTATATACATTAGCCTTTTAAGAGGAGGAAT 0.519
27) CGACATGTCCCGCTTCTTTCATTAAGCCGTTATCAACTGTTTTGCTATATTCATTTACCTTTTAAGAGGAGGAAT 0.0648
28) CGACATGTCCCGCTTCTTTCATTAATCCGTTAGCAACTGTTTGGCTATATACATTTACCGTTTAAGAGGAGGAAT 0.403
29) CGACATGTCCCGCTTCTTTCATTAATCCGTTAGCTACTGTTTTGCTATATACATTTACCTTTTAAGAGGAGGAAT 0.56
30) CGACATGTCCCGCTTCTTTCATTAATCCGTTAGCAAGTGTTTTGCTATATACATTTACCTTTTAAGAGGAGGAAT 0.995
